Conditions: in n-butanol, 283.15 K
READOUT_NAME: solubility (mole fraction)

>>> readout_number("COc1cc2nc(Cl)nc(N)c2cc1OC")
0.000345

----------
Conditions: in 1,4-dioxane, 293.15 K
READOUT_NAME: solubility (mole fraction)

>>> readout_number("COc1cc2nc(Cl)nc(N)c2cc1OC")
0.000129

----------
Conditions: in ethanol, 273.15 K
READOUT_NAME: solubility (mole fraction)

>>> readout_number("COc1cc2nc(Cl)nc(N)c2cc1OC")
0.000169

----------
Conditions: in isopropanol, 273.15 K
READOUT_NAME: solubility (mole fraction)

>>> result("COc1cc2nc(Cl)nc(N)c2cc1OC")
0.000142

----------
Conditions: in ethanol, 288.15 K
READOUT_NAME: solubility (mole fraction)

>>> readout_number("COc1cc2nc(Cl)nc(N)c2cc1OC")
0.0003

----------
Settings: in n-butanol, 278.15 K
READOUT_NAME: solubility (mole fraction)

>>> readout_number("COc1cc2nc(Cl)nc(N)c2cc1OC")
0.000294

----------
Settings: in cyclohexanone, 283.15 K
READOUT_NAME: solubility (mole fraction)

>>> readout_number("COc1cc2nc(Cl)nc(N)c2cc1OC")
0.00151

----------
Settings: in cyclohexanone, 273.15 K
READOUT_NAME: solubility (mole fraction)

>>> readout_number("COc1cc2nc(Cl)nc(N)c2cc1OC")
0.00109

----------
Settings: in isopropanol, 293.15 K
READOUT_NAME: solubility (mole fraction)

>>> readout_number("COc1cc2nc(Cl)nc(N)c2cc1OC")
0.000306

----------
Conditions: in methanol, 273.15 K
READOUT_NAME: solubility (mole fraction)

>>> readout_number("COc1cc2nc(Cl)nc(N)c2cc1OC")
0.000109

----------
Details: in NMP, 288.15 K
READOUT_NAME: solubility (mole fraction)

>>> readout_number("COc1cc2nc(Cl)nc(N)c2cc1OC")
0.00838

----------
Conditions: in toluene, 308.15 K
READOUT_NAME: solubility (mole fraction)

>>> result("COc1cc2nc(Cl)nc(N)c2cc1OC")
"1.66e-05"

----------
Settings: in ethanol, 303.15 K
READOUT_NAME: solubility (mole fraction)

>>> readout_number("COc1cc2nc(Cl)nc(N)c2cc1OC")
0.000497

----------
Details: in n-propanol, 273.15 K
READOUT_NAME: solubility (mole fraction)

>>> readout_number("COc1cc2nc(Cl)nc(N)c2cc1OC")
0.000209

----------
Conditions: in n-propanol, 298.15 K
READOUT_NAME: solubility (mole fraction)

>>> result("COc1cc2nc(Cl)nc(N)c2cc1OC")
0.000471

----------
Conditions: in ethyl acetate, 293.15 K
READOUT_NAME: solubility (mole fraction)

>>> result("COc1cc2nc(Cl)nc(N)c2cc1OC")
0.000522

----------
Conditions: in isobutanol, 283.15 K
READOUT_NAME: solubility (mole fraction)

>>> readout_number("COc1cc2nc(Cl)nc(N)c2cc1OC")
0.000325

----------
Conditions: in isobutanol, 293.15 K
READOUT_NAME: solubility (mole fraction)

>>> readout_number("COc1cc2nc(Cl)nc(N)c2cc1OC")
0.000443
